Each item that follows carries a reported cytotoxicity.
Test: MTT based viability assay (toxicity assay)
Format: cell-based
Conditions: monkey; COS-1 cells, 3:1 charge ratio
Experimental: Toxicity Assays. An MTT based viability assay was performed to assess the cytotoxicity of lipids 1-5 at various lipid:DNA charge ratios with COS-1 cells as described previously (Banerjee, R. et al. 1999). […] For lipids 1, 4 and 5 at a 3:1 charge ratio the toxicity varied from 15-25 % of the treated cells. The toxicity of lipid 2 (with shorter alkyl chains) may originate from its probable detergent-like cell-lysing activity.

# example entries with known answers
COMPOUND: CCCCCCCCCCCCCCCCCC[N+]1(CCCCCCCCCCCCCCCCCC)CC(O)C(O)C1 (stereo not drawn) [compound 4]
cytotoxicity: 15 to 25%

COMPOUND: CCCCCCCC/C=C\CCCCCCCC[N+]1(CCCCCCCCCCCCCCCCCC)CC(O)C(O)C1 (stereo not drawn) [compound 5]
cytotoxicity: 15 to 25%

Pending compound:
What value of cytotoxicity has been reported for the following compound? CCCCCCCCCCCC[N+]1(CCCCCCCCCCCC)CC(O)C(O)C1 (stereo not drawn) [compound 1]
15 to 25%

// provenance: patent EP1492876B1
